# tested.target: EmCV Cap-dependent translation
# method.notes: In vitro translation assay, FF-EmCV-Ren construct, cap-dependent (FF luciferase)
pIC50: −log10 of the molar value.
Entries and their measured pIC50 follow.

{"columns": ["chemical.string", "tested.target", "pIC50"],
 "data": [
  ["COc1ccc(/C=C/C(=O)c2c(-c3ccccc3)c3cc(Cl)ccc3[nH]c2=O)c(F)c1", "EmCV Cap-dependent translation", "< 4.70"],
  ["O=C(/C=C/c1cnccn1)c1c(-c2ccccc2)c2cc(Cl)ccc2[nH]c1=O", "EmCV Cap-dependent translation", "5.00 to 5.70"],
  ["CCn1c(/C=C/C(=O)c2c(-c3ccccc3)c3cc(Cl)ccc3[nH]c2=O)nc2cc(Cl)c(Cl)cc21", "EmCV Cap-dependent translation", "5.00 to 5.70"],
  ["O=C(/C=C/c1nc2ccccc2[nH]1)c1c(-c2ccccc2)c2cc([N+](=O)[O-])ccc2[nH]c1=O", "EmCV Cap-dependent translation", "5.00 to 5.70"],
  ["COc1ccc2[nH]c(=O)c(C(=O)/C=C/c3nc4ccccc4[nH]3)c(-c3ccccc3)c2c1", "EmCV Cap-dependent translation", "4.70 to 5.00"],
  ["O=C(/C=C/c1ccc(Br)cn1)c1c(-c2ccccc2)c2cc(Cl)ccc2[nH]c1=O", "EmCV Cap-dependent translation", "5.00 to 5.70"],
  ["O=C(/C=C/c1cncc(F)c1)c1c(-c2ccc(Cl)cc2)c2cc(Cl)ccc2[nH]c1=O", "EmCV Cap-dependent translation", "5.00 to 5.70"]
]}

###

# pIC50 per record follows
# tested.target: EmCV Cap-dependent translation
# method.notes: In vitro translation assay, FF-EmCV-Ren construct, cap-dependent (FF luciferase)
pIC50: −log10 of the molar value.

{"columns": ["molecule", "tested.target", "pIC50"],
 "data": [
  ["Cc1ccc(/C=C/C(=O)c2c(-c3ccccc3)c3cc(Cl)ccc3[nH]c2=O)nc1 [Compound 48]", "EmCV Cap-dependent translation", "5.00 to 5.70"],
  ["N#Cc1cncc(-c2c(C(=O)/C=C/c3ccccn3)c(=O)[nH]c3ccc(Cl)cc23)c1 [Compound 106]", "EmCV Cap-dependent translation", "< 4.70"],
  ["COCc1cncc(/C=C/C(=O)c2c(-c3ccccc3)c3cc(Cl)ccc3[nH]c2=O)c1 [Compound 73]", "EmCV Cap-dependent translation", "5.00 to 5.70"],
  ["O=C(/C=C/c1ccncc1)c1c(-c2ccccc2)c2cc(Cl)ccc2[nH]c1=O [Compound 28]", "EmCV Cap-dependent translation", "5.00 to 5.70"],
  ["Nc1ccc2[nH]c(=O)c(C(=O)/C=C/c3nc4ccccc4[nH]3)c(-c3ccccc3)c2c1 [Compound 15]", "EmCV Cap-dependent translation", "4.70 to 5.00"],
  ["O=C(/C=C/c1ccccc1)c1c(-c2ccccc2)c2cc([N+](=O)[O-])ccc2[nH]c1=O [Compound 16]", "EmCV Cap-dependent translation", "5.00 to 5.70"],
  ["O=C(/C=C/c1nc2ccccc2[nH]1)c1c(-c2cccs2)c2cc(Cl)ccc2[nH]c1=O [Compound 9]", "EmCV Cap-dependent translation", "5.00 to 5.70"],
  ["O=C(/C=C/c1cncc(F)c1)c1c(-c2ccc(OC(F)(F)F)cc2)c2cc(Cl)ccc2[nH]c1=O [Compound 87]", "EmCV Cap-dependent translation", "5.00 to 5.70"],
  ["COc1ccc2[nH]c(/C=C/C(=O)c3c(-c4ccccc4)c4cc(Cl)ccc4[nH]c3=O)nc2c1 [Compound 65]", "EmCV Cap-dependent translation", "5.00 to 5.70"],
  ["O=C(CCc1cncc(F)c1)c1c(-c2ccccc2)c2cc(Cl)ccc2[nH]c1=O [Compound 67]", "EmCV Cap-dependent translation", "< 4.70"],
  ["N#Cc1cncc(/C=C/C(=O)c2c(-c3ccccc3)c3cc(Cl)ccc3[nH]c2=O)c1 [Compound 72]", "EmCV Cap-dependent translation", "5.00 to 5.70"],
  ["O=C(/C=C/c1nc2ccccc2[nH]1)c1c(-c2ccccc2)c2cc(F)ccc2[nH]c1=O [Compound 20]", "EmCV Cap-dependent translation", "4.70 to 5.00"],
  ["O=C(/C=C/c1ccc(F)cc1F)c1c(-c2ccccc2)c2cc(Cl)ccc2[nH]c1=O [Compound 41]", "EmCV Cap-dependent translation", "5.00 to 5.70"],
  ["O=C(/C=C/c1nc2ccccc2[nH]1)c1c(-c2ccc(Cl)cc2)c2cc(Cl)ccc2[nH]c1=O [Compound 5]", "EmCV Cap-dependent translation", "5.00 to 5.70"],
  ["O=C(/C=C/c1ccccn1)c1c(-c2cncc(Br)c2)c2cc(Cl)ccc2[nH]c1=O [Compound 104]", "EmCV Cap-dependent translation", "5.00 to 5.70"],
  ["O=C(/C=C/c1ccccn1)c1c(-c2ccc(OC(F)(F)F)cc2)c2cc(Cl)ccc2[nH]c1=O [Compound 88]", "EmCV Cap-dependent translation", "5.00 to 5.70"]
]}
